B1: RSPH3 (parent)
chain: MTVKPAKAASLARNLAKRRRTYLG

variants of: B1; test: protein stability index of a GFP-peptide fusion (GPS, HEK-293T) (PSI 1-6); higher = more stable; conditions: c terminus: a fixed tail appended;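 further: lentivirally expressed fusions sorted by FACS into six bins by GFP to DsRed ratio, PSI derived from sequencing read proportions per bin multiplied by bin number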
Measured quantity: protein stability index

Sample answers from the record:
S10A 2.86
A9F 2.62
R13W 1.8
Y22W 3.06
K17F 2.1

## Task Which protein stability index value belongs to `P5I` ?
## Result 1.73

## Task Which protein stability index value belongs to `G24A` ?
## Result 3.33
